# Test system: SK-OV-3 cells
# test-name: IC50 assay, inhibition of cell proliferation and growth, SK-OV-3
# Type: cell-based, human
# condition-details: Homo sapiens; SK-OV-3 ovarian adenocarcinoma cell line; neutral red or crystal violet; read-out: IC50 Concentrations, SK-OV-3
Each item that follows carries a reported pIC50.
Just the number, please; pIC50 means minus log10 of the concentration in mol/L.

Below, each entry is followed by its recorded pIC50 result.
molecule	pIC50
C#CCNC(=O)c1cc([N+](=O)[O-])ccc1I [Ref. No. 8, N-(Propargyl) 2-Iodo-5-Nitro-Benzamide]	4.36
NC(=O)c1cc([N+](=O)[O-])ccc1I [Ref. No. 15, 2-Iodo-5-Nitro-Benzamide]	3.85
O=C(Nc1ccc2ccc(=O)oc2c1)c1cc([N+](=O)[O-])ccc1I	3.40

Next molecule, please.
In plain terms, Cc1ccc(-c2csc(NC(=O)c3cc([N+](=O)[O-])ccc3I)n2)cc1 has a documented pIC50 of 4.48

###

The compounds listed here are annotated with their IC50.
# Test system: P388 cells
# test-name: IC50 assay (XTT), inhibition of cell proliferation and growth, P388
# Format: cell-based
# condition-details: Mus musculus; P388 murine leukemia cell line; XTT dye conversion; read-out: IC50 Concentrations, P388
Give the value, in units of µM, as a plain number.

compound	IC50 [µM]
Cc1cnc(NC(=O)c2cc([N+](=O)[O-])ccc2I)s1	3.64

IC50 on P388 cells for O=C(Nc1nnc(C(F)(F)F)s1)c1cc([N+](=O)[O-])ccc1I is 12.8

The value of IC50 recorded for Cc1ccc(-c2csc(NC(=O)c3cc([N+](=O)[O-])ccc3I)n2)cc1 when tested on P388 cells reads 2.43

Entry CCOC(=O)c1sc(NC(=O)c2cc([N+](=O)[O-])ccc2I)nc1C , P388 cells data, IC50 value: 11.2

Tested system P388 cells; IC50 recorded for C=CCNC(=O)c1cc([N+](=O)[O-])ccc1I [Ref. No. 7, N-(Allyl)-2-Iodo-5-Nitro-Benzamide] was 39.4

Assay P388 cells, sample Cc1csc(NC(=O)c2cc([N+](=O)[O-])ccc2I)n1 , IC50 read: 3.44

IC50 for P388 cells with input O=C(NC1=NCCS1)c1cc([N+](=O)[O-])ccc1I equals 353

Note to self: IC50 of NC(=O)c1cc(N)ccc1I with P388 cells was 439

Entry C#CCNC(=O)c1cc([N+](=O)[O-])ccc1I [Ref. No. 8, N-(Propargyl) 2-Iodo-5-Nitro-Benzamide] ; assay system P388 cells; IC50 recorded at 25.8

###

Overview of recorded IC50 for various compounds
# Tested on: SK-OV-3 cells
# test-name: IC50 assay, inhibition of cell proliferation and growth, SK-OV-3
# Type: cell-based, human
# condition-details: Homo sapiens; SK-OV-3 ovarian adenocarcinoma cell line; neutral red or crystal violet; read-out: IC50 Concentrations, SK-OV-3
Write the value in µM as a bare number.

Before answering, review these 5 worked examples.
compound	readout-unit	IC50
Cc1cnc(NC(=O)c2cc([N+](=O)[O-])ccc2I)s1 [Ref. No. 22]	µM	16.1
Cc1csc(NC(=O)c2cc([N+](=O)[O-])ccc2I)n1 [Ref. No. 21]	µM	15.7
CCOC(=O)c1sc(NC(=O)c2cc([N+](=O)[O-])ccc2I)nc1C [Ref. No. 16]	µM	41.2
O=C(Nc1nccs1)c1cc([N+](=O)[O-])ccc1I [Ref. No. 5, 2-(2′-Iodo-5′-Nitro-Benzamido)-Thiazole]	µM	32.8
C=CCNC(=O)c1cc([N+](=O)[O-])ccc1I [Ref. No. 7, N-(Allyl)-2-Iodo-5-Nitro-Benzamide]	µM	46.4

Next item in the queue.
response.value for O=C(Nc1nnc(C(F)(F)F)s1)c1cc([N+](=O)[O-])ccc1I [Ref. No. 18] (field: IC50) = 73

###

# System: M14 cells
# test-name: IC50 assay, inhibition of cell proliferation and growth, M14
# Format: cell-based, human
# condition-details: Homo sapiens; M14 melanoma cell line; neutral red or crystal violet; read-out: IC50 Concentrations, M14
As shown below, each of these compounds has a reported pIC50 value.
Friendly reminder that pIC50 comes from taking -log10 of the concentration in mol/L.

compound	subject-of-test	measured
O=C(Nc1nnc(C(F)(F)F)s1)c1cc([N+](=O)[O-])ccc1I	M14 cells	4.56
Cc1ccc(-c2csc(NC(=O)c3cc([N+](=O)[O-])ccc3I)n2)cc1	M14 cells	4.84
C#CCNC(=O)c1cc([N+](=O)[O-])ccc1I [Ref. No. 8, N-(Propargyl) 2-Iodo-5-Nitro-Benzamide]	M14 cells	4.31
CCOC(=O)c1sc(NC(=O)c2cc([N+](=O)[O-])ccc2I)nc1C	M14 cells	4.43
O=C(Nc1nccs1)c1cc([N+](=O)[O-])ccc1I	M14 cells	4.76
O=C(NC1=NCCS1)c1cc([N+](=O)[O-])ccc1I	M14 cells	3.82
NC(=O)c1cc([N+](=O)[O-])ccc1I [Ref. No. 15, 2-Iodo-5-Nitro-Benzamide]	M14 cells	4.44
Cc1csc(NC(=O)c2cc([N+](=O)[O-])ccc2I)n1	M14 cells	4.88
C=CCNC(=O)c1cc([N+](=O)[O-])ccc1I [Ref. No. 7, N-(Allyl)-2-Iodo-5-Nitro-Benzamide]	M14 cells	4.38

Kindly consider the entry below.
GET /value?item= Cc1cnc(NC(=O)c2cc([N+](=O)[O-])ccc2I)s1 &field=pIC50 returns 4.84

###

# Test system: MCF7 cells
# test-name: IC50 assay, inhibition of cell proliferation and growth, MCF7
# Assay type: cell-based, human
# condition-details: Homo sapiens; MCF7 breast adenocarcinoma cell line; neutral red or crystal violet; read-out: IC50 Concentrations, MCF 7
# Method: Cell culture: The human cell lines were propagated under sterile conditions in RPMI 1640 (CellGrow) with 10% fetal bovine serum (Hyclone), 2 mM L-glutamine, and sodium bicarbonate (complete medium) and incubated at 37° C. in HEPA-filtered Sterilcult CO2 tissue culture incubators (Forma) with 5% CO^2 and 95% humidity (Table 1). […] Anticellular effects of the compounds for the adherent cell lines were assessed with neutral red dye. […]
Below is a list of entries, each paired with its recorded pIC50 value.
The quantity pIC50 is defined as the negative base-10 logarithm of the molar concentration.

Past entries and their recorded results:
compound	pIC50
O=C(NC1=NCCS1)c1cc([N+](=O)[O-])ccc1I [Ref. No. 23]	3.79
Cc1cnc(NC(=O)c2cc([N+](=O)[O-])ccc2I)s1 [Ref. No. 22]	4.83
CCOC(=O)c1sc(NC(=O)c2cc([N+](=O)[O-])ccc2I)nc1C [Ref. No. 16]	4.46
C#CCNC(=O)c1cc([N+](=O)[O-])ccc1I [Ref. No. 8, N-(Propargyl) 2-Iodo-5-Nitro-Benzamide]	4.32

Given item Cc1ccc(-c2csc(NC(=O)c3cc([N+](=O)[O-])ccc3I)n2)cc1 [Ref. No. 19] , the value recorded as its pIC50 is 4.45

So, O=C(Nc1nccs1)c1cc([N+](=O)[O-])ccc1I [Ref. No. 5, 2-(2′-Iodo-5′-Nitro-Benzamido)-Thiazole] ? Its pIC50 was 4.57

get_value(item= O=C(Nc1nnc(C(F)(F)F)s1)c1cc([N+](=O)[O-])ccc1I [Ref. No. 18] , readout=pIC50) returns 4.62

Entry Cc1csc(NC(=O)c2cc([N+](=O)[O-])ccc2I)n1 [Ref. No. 21] — recorded pIC50 = 4.90

Given item C=C(C)c1ccccc1NC(=O)c1cc([N+](=O)[O-])ccc1I [Ref. No. 9] , the value recorded as its pIC50 is 4.00

###

# System: COLO 205 cells
# test-name: IC50 assay, inhibition of cell proliferation and growth, COLO 205
# Format: cell-based, human
# condition-details: Homo sapiens; COLO 205 colon adenocarcinoma cell line; neutral red or crystal violet; read-out: IC50 Concentrations, COLO 205
assay-metric: pIC50
Conceptually, pIC50 converts a concentration in mol/L into minus its log10.

Look over these answered cases.
compound	pIC50
Cc1cnc(NC(=O)c2cc([N+](=O)[O-])ccc2I)s1	4.87
CCOC(=O)c1sc(NC(=O)c2cc([N+](=O)[O-])ccc2I)nc1C	4.51

Measured pIC50 of Cc1ccc(-c2csc(NC(=O)c3cc([N+](=O)[O-])ccc3I)n2)cc1 : 4.74

In plain terms, O=C(NC1=NCCS1)c1cc([N+](=O)[O-])ccc1I has a documented pIC50 of 4.09

Query NC(=O)c1cc([N+](=O)[O-])ccc1I [Ref. No. 15, 2-Iodo-5-Nitro-Benzamide] yields pIC50 of 4.48

# pIC50 (compound: Cc1csc(NC(=O)c2cc([N+](=O)[O-])ccc2I)n1 ) is 5.25

# pIC50 (compound: O=C(Nc1nccs1)c1cc([N+](=O)[O-])ccc1I ) is 4.87

Origin of the recorded values: patent US6780995B2
